Target: human TYK2 kinase domain (JH1) (Homo sapiens, UniProt P29597)
Construct: recombinantly generated catalytic kinase (also known as JH1) domain of human JAK1, JAK2, JAK3 and TYK2
Sequence (P29597 897-1176 limits assumed): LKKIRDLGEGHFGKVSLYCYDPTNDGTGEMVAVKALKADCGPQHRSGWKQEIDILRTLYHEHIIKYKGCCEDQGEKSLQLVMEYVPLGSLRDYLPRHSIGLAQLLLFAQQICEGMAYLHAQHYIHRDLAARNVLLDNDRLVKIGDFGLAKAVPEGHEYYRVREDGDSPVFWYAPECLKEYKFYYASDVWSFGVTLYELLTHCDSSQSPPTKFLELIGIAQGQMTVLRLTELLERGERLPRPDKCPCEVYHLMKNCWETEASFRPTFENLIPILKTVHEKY
Experiment: JH1 biochemical assay for TYK2 (ADP-Glo kinase assay, recombinant JH1 catalytic domain, JAK3-974 peptide, 10 μM ATP)
Conditions: JH1 kinase domain, ADP-Glo
Structures can show the parent of a compound that is named as a salt.
Examples of compounds with documented IC50 follow.

What value of IC50 has been reported for the following compound? C[C@@H]1CN(c2ccnn3cc(-c4cncc(OC(F)F)c4)cc23)C(=O)[C@]1(C#N)C1CC1 [Example 177] 20 to 50 nM

---
// IC50 lookup, key: C[C@@H]1CN(c2ccnn3cc(-c4ccc(=O)n(C)c4)cc23)C(=O)[C@]1(C#N)C1CC1 [Example 83] < 5 nM

What do you get for C[C@@H]1CN(c2nc(-c3cnn([C@H]4CCOC4)c3)cn3ncc(F)c23)C(=O)[C@]1(C#N)C1CC1 [Example 191] ? < 5 nM

Next compound: COc1ccc(-c2cn3nccc3c(N3C[C@@H](C)[C@@](C#N)(C4CC4)C3=O)n2)nc1 [Example 213] 5 to 20 nM

Similarly, C[C@@H]1CN(c2ccnn3cc(-c4cnc5cnccn45)cc23)C(=O)[C@]1(C#N)C1CC1 [Example 116, trifluoroacetate] ? 20 to 50 nM

C[C@@H]1CN(c2ccnn3cc(-c4ccc(N(C)C(=O)OC(C)(C)C)nc4)cc23)C(=O)[C@]1(C#N)C1CC1 [Example 95] , same question. 5 to 20 nM

Same read-out for COc1ccnc(-c2cc3c(N4C[C@@H](C)[C@@](C#N)(C5CC5)C4=O)ccnn3c2)n1 [Example 122, trifluoroacetate] ? > 100 nM

Subsequent entry: C[C@@H]1C[C@@](C#N)(C2CC2)C(=O)N1c1ccnn2cc(-c3cnn(C)c3)cc12 [Example 17] > 100 nM

Also C[C@@H]1CN(c2ccnn3cc(-c4ccnn4C)cc23)C(=O)[C@]1(C#N)C1CC1 [Example 49] ? 20 to 50 nM

Continue with Cc1ccc(-c2cc3c(N4C[C@@H](C)[C@@](C#N)(C5CC5)C4=O)ccnn3c2)nn1 [Example 137, trifluoroacetate] 20 to 50 nM

----------
As shown below, each of these molecules has a reported IC50 value.
Target: human JAK1 kinase domain (JH1) (Homo sapiens)
Construct: recombinantly generated catalytic kinase (also known as JH1) domain of human JAK1, JAK2, JAK3 and TYK2
Sequence (P23458 875-1153 limits assumed): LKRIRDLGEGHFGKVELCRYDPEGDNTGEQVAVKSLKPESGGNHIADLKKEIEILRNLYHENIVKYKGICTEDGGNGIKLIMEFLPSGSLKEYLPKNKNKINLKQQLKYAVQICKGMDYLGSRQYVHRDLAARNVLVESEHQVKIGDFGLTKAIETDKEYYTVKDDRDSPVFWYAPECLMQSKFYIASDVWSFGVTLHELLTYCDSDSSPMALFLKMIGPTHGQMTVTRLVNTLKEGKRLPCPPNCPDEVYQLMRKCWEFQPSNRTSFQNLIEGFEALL
Assay: JH1 biochemical assay for JAK1 (ADP-Glo kinase assay, recombinant JH1 catalytic domain, JAK3-342 peptide, 35 μM ATP)
Details: JH1 kinase domain, ADP-Glo
Counter-ions that a name gives are not always drawn.

Completed entries (count: 2):
Suppose we examine the molecule C[C@@H]1CN(c2ccnn3cc(-c4cnn(C5COC5)c4)cc23)C(=O)[C@]1(C#N)C1CC1 ; what IC50 value has been reported? < 100 nM

And what about the molecule C[C@@H]1CN(c2ccnn3cc(-c4cnn(C5CC(F)(F)C5)c4)cc23)C(=O)[C@]1(C#N)C1CC1 ? < 100 nM

Others:
Please give the measured IC50 for this molecule: C[C@@H]1CN(c2ccnn3cc(-c4cncc(F)c4)cc23)C(=O)[C@]1(C#N)C1CC1 100 to 1000 nM

And C[C@@H]1CN(c2ccnn3cc(-c4nccc(O)c4C#N)cc23)C(=O)[C@]1(C#N)C1CC1 [Example 129, trifluoroacetate] ? > 10000 nM

Also, C[C@@H]1CN(c2ccnn3cc(-c4cnccc4C(F)(F)F)cc23)C(=O)[C@]1(C#N)C1CC1 please. > 10000 nM

Now the molecule C[C@@H]1CN(c2ccnn3cc(-c4cnc(N(C)C)nc4)cc23)C(=O)[C@]1(C#N)C1CC1 100 to 1000 nM

Please answer likewise for C[C@@H]1CN(c2ccnn3cc(-c4ccc(C(=O)N(C)C)cn4)cc23)C(=O)[C@]1(C#N)C1CC1 [Example 124, trifluoroacetate] 100 to 1000 nM

Query C[C@@H]1CN(c2ccnn3cc(-c4ccn(C)n4)cc23)C(=O)[C@]1(C#N)C1CC1 next 100 to 1000 nM

What about this molecule? C[C@@H]1CN(c2ncnc3[nH]c(-c4cnn(C)c4)cc23)C(=O)[C@]1(C#N)C1CC1 1000 to 5000 nM

Would you kindly repeat that for C[C@@H]1CN(c2ccnn3cc(-c4cnn(CC#N)c4)cc23)C(=O)[C@]1(C#N)C1CC1 ? < 100 nM

Check COc1cc(-c2cc3c(N4C[C@@H](C)[C@@](C#N)(C5CC5)C4=O)ccnn3c2)c(F)cn1 too. 1000 to 5000 nM

----------
// reported IC50 for each item listed
Target: human JAK3 kinase domain (JH1) (Homo sapiens)
Construct: recombinantly generated catalytic kinase (also known as JH1) domain of human JAK1, JAK2, JAK3 and TYK2
Sequence (P52333 822-1111 limits assumed): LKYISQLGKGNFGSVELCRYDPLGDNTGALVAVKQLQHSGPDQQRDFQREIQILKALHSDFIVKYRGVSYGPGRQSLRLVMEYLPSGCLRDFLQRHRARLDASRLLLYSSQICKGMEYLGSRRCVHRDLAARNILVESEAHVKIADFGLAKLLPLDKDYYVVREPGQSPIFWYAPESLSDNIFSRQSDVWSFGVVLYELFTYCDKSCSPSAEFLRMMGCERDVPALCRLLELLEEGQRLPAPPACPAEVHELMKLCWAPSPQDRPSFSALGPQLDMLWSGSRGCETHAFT
Experiment: JH1 biochemical assay for JAK3 (ADP-Glo kinase assay, recombinant JH1 catalytic domain, JAK3-974 peptide, 4 μM ATP)
Conditions: JAK3 JH1, ADP-Glo
Where a name gives a salt, the structure may show the parent alone.

Given the entry C[C@@H]1CN(c2ccnn3cc(-n4cc(C5CN(C)CCO5)cn4)cc23)C(=O)[C@]1(C#N)C1CC1 (stereo partly drawn) , report its measured IC50. 100 to 1000 nM

Now consider CC(=O)Nc1cc(-c2cn3nccc3c(N3C[C@@H](C)[C@@](C#N)(C4CC4)C3=O)n2)ccn1 . < 100 nM

And what about the compound Cc1ccc(-c2cn3nccc3c(N3C[C@@H](C)[C@@](C#N)(C4CC4)C3=O)n2)cn1 [Example 233, trifluoroacetate] ? < 100 nM

Also check C[C@@H]1CN(c2nc(-c3cc[nH]n3)cn3nccc23)C(=O)[C@]1(C#N)C1CC1 [Example 232, trifluoroacetate] 100 to 1000 nM

Continue with C[C@@H]1CN(c2ccnn3cc(-c4cnn([C@H]5C[C@@](F)(C#N)C5)c4)cc23)C(=O)[C@]1(C#N)C1CC1 < 100 nM

Try the compound C[C@@H]1CN(c2c[nH]c3ncc(-c4cnn(C)c4)cc23)C(=O)[C@]1(C#N)C1CC1 100 to 1000 nM

Continuing:
Form field: reported IC50 of C[C@@H]1CN(c2ccnc3cc(-c4cnn(C)c4)nn23)C(=O)[C@]1(C#N)C1CC1 5000 to 10000 nM

Likewise for C[C@@H]1CN(c2nc(-c3ccn(C)n3)cn3nccc23)C(=O)[C@]1(C#N)C1CC1 [Example 229, trifluoroacetate] ? 1000 to 5000 nM

Next up: C[C@@H]1CN(c2cc(-c3cnn(C(F)F)c3)cn3ncc(F)c23)C(=O)[C@]1(C#N)C1CC1 1000 to 5000 nM

----------
Each entry below carries its recorded IC50.
Biological target: human JAK2 kinase domain (JH1) (Homo sapiens)
Construct: recombinantly generated catalytic kinase (also known as JH1) domain of human JAK1, JAK2, JAK3 and TYK2
Sequence (O60674 849-1124 limits assumed): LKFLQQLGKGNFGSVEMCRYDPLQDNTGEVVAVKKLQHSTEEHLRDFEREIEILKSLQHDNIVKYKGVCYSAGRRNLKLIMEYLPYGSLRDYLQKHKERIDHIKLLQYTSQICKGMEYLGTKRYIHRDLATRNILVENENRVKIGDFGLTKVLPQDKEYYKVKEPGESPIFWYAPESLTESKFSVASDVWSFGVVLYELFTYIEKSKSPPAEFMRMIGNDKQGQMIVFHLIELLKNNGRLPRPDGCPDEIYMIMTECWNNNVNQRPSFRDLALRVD
Assay: JH1 biochemical assay for JAK2 (ADP-Glo kinase assay, recombinant JH1 catalytic domain, JAK3-974 peptide, 15 μM ATP)
Settings: JAK2 JH1, ADP-Glo
Counter-ions that a name gives are not always drawn.

Use the examples below as a reference point.
Quick one: IC50 for C[C@@H]1CN(c2ccnn3cc(-n4cc(C5CN(C)CCO5)cn4)cc23)C(=O)[C@]1(C#N)C1CC1 (stereo partly drawn) ? 100 to 1000 nM

Try this compound next: C[C@@H]1CN(c2nc(-c3cccc4cnn(C)c34)cn3nccc23)C(=O)[C@]1(C#N)C1CC1 > 10000 nM

// repeat for C[C@@H]1CN(c2nc(-c3cnn(CC4(C)COC4)c3)cn3ncc(F)c23)C(=O)[C@]1(C#N)C1CC1 and report < 100 nM

New cases:
Record request: IC50 value, item C[C@@H]1CN(c2nc(-c3cnn(C4CC5(COC5)C4)c3)cn3nccc23)C(=O)[C@]1(C#N)C1CC1 < 100 nM

Request: CO[C@H]1C[C@H](n2cc(-c3cn4ncc(F)c4c(N4C[C@@H](C)[C@@](C#N)(C5CC5)C4=O)n3)cn2)C1 < 100 nM

And C[C@@H]1CN(c2ccnn3cc(-c4cn(C5COC5)nc4F)cc23)C(=O)[C@]1(C#N)C1CC1 ? < 100 nM

Please do the same for C[C@@H]1CN(c2nc(-c3cnn(C45CC(C#N)(C4)C5)c3)cn3ncc(F)c23)C(=O)[C@]1(C#N)C1CC1 as well. < 100 nM

Entry C[C@@H]1CN(c2nc(-c3ccnn3C)cn3nccc23)C(=O)[C@]1(C#N)C1CC1 [Example 254, trifluoroacetate] please 100 to 1000 nM

----------
Listing of recorded IC50 by entry.
Target: Tyk2 kinase activity on STAT4 in NK92 cells (Homo sapiens, UniProt P29597)
Sequence (P29597 whole entry): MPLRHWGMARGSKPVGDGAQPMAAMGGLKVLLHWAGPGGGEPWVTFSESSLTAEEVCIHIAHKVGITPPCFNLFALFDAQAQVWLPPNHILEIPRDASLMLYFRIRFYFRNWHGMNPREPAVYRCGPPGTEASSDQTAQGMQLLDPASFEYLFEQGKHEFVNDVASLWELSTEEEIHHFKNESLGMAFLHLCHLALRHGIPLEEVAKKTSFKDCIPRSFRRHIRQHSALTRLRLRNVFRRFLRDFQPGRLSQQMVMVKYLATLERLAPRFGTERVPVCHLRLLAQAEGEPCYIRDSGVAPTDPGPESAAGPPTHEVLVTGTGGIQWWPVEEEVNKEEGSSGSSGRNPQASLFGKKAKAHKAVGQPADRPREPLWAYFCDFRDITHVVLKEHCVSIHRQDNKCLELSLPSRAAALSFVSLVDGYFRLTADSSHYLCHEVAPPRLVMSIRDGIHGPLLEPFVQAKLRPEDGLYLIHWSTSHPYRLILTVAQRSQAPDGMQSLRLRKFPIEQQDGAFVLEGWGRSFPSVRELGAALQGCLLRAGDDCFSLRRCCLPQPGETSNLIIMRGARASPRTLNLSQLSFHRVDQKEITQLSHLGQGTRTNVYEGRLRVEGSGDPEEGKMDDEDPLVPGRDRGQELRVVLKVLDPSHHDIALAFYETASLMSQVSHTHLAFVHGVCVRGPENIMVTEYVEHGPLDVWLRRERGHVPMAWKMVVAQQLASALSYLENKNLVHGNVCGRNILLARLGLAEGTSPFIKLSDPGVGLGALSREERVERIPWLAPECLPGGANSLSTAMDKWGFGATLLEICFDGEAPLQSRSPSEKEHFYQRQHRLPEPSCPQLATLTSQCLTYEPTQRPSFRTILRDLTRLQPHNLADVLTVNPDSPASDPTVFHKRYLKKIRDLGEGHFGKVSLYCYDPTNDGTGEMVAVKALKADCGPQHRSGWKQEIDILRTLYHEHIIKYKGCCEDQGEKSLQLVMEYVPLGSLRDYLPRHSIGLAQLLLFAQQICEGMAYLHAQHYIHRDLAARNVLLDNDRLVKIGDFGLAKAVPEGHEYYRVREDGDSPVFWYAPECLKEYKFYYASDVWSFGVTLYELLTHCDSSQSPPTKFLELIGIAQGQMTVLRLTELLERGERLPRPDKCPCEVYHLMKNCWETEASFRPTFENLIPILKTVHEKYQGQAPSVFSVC
Experiment: pSTAT4 cell assay (MSD; NK92 cells, 30 ng/mL IL2 stimulation)
Settings: 30 ng/mL IL2, 15 minutes
Protocol: The inhibitory potency of compounds of the disclosure against the Tyk2 kinase activity on STAT4 was evaluated using an MSD-platform plate-based assay format. NK92 cells natively expressing STAT4 and Tyk2 were serum-starved to reduce background phosphorylation levels, then cells were treated compounds for 1 hr with a 10-point four-fold dilution series starting at 10 μM. […] Cells were lysed and pSTAT5 levels were quantitated using an MSD plate-based assay with anti-STAT4 antibodies. […]
Where a name gives a salt, the structure may show the parent alone.

Which IC50 value belongs to C[C@@H]1CN(c2ccnn3cc(-c4ccc(CC#N)cn4)cc23)C(=O)[C@]1(C#N)C1CC1 [Example 127, trifluoroacetate] ? > 100 nM

Input C[C@@H]1CN(c2nc(-c3cnn(C4CC4(F)F)c3)cn3nccc23)C(=O)[C@]1(C#N)C1CC1 (stereo partly drawn) [Example 198] 50 to 100 nM

Record: C[C@@H]1CN(c2ccnn3cc(-c4ccc(F)nc4)cc23)C(=O)[C@]1(C#N)C1CC1 [Example 81] > 100 nM

Same for Cc1ccc(-c2cc3c(N4C[C@@H](C)[C@@](C#N)(C5CC5)C4=O)ccnn3c2)cn1 [Example 67] > 100 nM

Then Cc1cn(-c2cc3c(N4C[C@@H](C)[C@@](C#N)(C5CC5)C4=O)ccnn3c2)cn1 [Example 341] ? > 100 nM

Same question for C[C@@H]1CN(c2cc(-c3cnn(C)c3)cn3nccc23)C(=O)[C@]1(C#N)C1CC1 [Example 271] please. > 100 nM

***
State the recorded IC50 for this entry: CC(=O)Nc1cncc(-c2cc3c(N4C[C@@H](C)[C@@](C#N)(C5CC5)C4=O)ccnn3c2)c1 [Example 90] > 100 nM

Then this compound: C[C@@H]1CN(c2ccnn3cc(-c4cccnc4)cc23)C(=O)[C@]1(C#N)C1CC1 [Example 60] > 100 nM

For Cc1cncc(-c2cc3c(N4C[C@@H](C)[C@@](C#N)(C5CC5)C4=O)ccnn3c2)c1 [Example 71] then? > 100 nM

Also C[C@@H]1CN(c2ccnn3cc(-c4cn5c(n4)CCC5)cc23)C(=O)[C@]1(C#N)C1CC1 [Example 106, trifluoroacetate] , if possible. > 100 nM

Would you kindly repeat that for COc1cc(-c2cc3c(N4CC[C@@](C#N)(C5CC5)C4=O)ccnc3[nH]2)ccn1 [Example 3] ? 20 to 50 nM
